Target: Phospholipase D2 (Homo sapiens) (UniProt O14939)
Sequence (O14939 whole entry, looked up): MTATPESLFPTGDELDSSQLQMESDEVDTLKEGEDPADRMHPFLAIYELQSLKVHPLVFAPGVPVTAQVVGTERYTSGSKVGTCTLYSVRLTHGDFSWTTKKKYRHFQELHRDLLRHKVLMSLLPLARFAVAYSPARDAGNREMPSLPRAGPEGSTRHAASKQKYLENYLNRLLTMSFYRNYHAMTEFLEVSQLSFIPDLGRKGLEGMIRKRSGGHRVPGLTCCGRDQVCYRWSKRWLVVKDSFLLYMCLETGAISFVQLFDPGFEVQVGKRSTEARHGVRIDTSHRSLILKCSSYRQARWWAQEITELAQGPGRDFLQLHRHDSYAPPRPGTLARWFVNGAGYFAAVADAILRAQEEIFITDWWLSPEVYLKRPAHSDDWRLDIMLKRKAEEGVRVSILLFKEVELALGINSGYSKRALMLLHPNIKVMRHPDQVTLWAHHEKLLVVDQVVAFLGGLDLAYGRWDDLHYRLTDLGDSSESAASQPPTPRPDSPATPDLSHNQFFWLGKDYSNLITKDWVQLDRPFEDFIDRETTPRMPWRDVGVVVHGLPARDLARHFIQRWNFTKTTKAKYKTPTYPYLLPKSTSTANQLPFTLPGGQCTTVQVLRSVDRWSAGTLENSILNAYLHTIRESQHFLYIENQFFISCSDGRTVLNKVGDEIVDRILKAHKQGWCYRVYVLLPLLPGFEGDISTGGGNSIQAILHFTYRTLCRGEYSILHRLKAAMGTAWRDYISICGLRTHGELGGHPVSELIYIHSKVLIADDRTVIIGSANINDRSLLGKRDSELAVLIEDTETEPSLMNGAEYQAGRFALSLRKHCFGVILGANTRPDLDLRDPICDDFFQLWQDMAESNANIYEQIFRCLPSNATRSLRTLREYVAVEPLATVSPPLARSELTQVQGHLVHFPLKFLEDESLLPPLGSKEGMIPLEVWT
Sequence (O14939 whole entry, looked up): as above
Assay: PLD2 inhibitors in cells, cell-based, HEK293, single concentration (AID 602143);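 further: tested at 200 nM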
Settings: HEK293 cellular PLD2 activity, percent of control; active compounds read low
Collected remaining activity values appear next to each entry.
MEASURED ATTRIBUTE: remaining activity (%)

1. O=C(NCCN1CCC2(CC1)CNCc1ccccc12)c1cnc2ccccc2c1: 97.1
2. O=C(NCCN1CCC2(CC1)CNc1ccccc12)C1CC1c1ccccc1 (configuration not stated): 91.2
3. O=C(NCCN1CCC(n2c(=O)[nH]c3ccccc32)CC1)c1cscn1: 57.9
4. C[C@@H](CN1CCC(c2nc3ccccc3[nH]2)CC1)NC(=O)c1ccc2ccccc2c1: 86.5
5. Cc1ccc(C(=O)N[C@@H](C)CN2CCC(n3c(=O)[nH]c4cc(Cl)ccc43)CC2)cc1: 86
6. Cn1c(=O)n(C2CCN(CCNC(=O)[C@H]3C[C@@H]3c3ccccc3)CC2)c2ccccc21: 78.4
7. NC1(CN2CCC(n3c(=O)[nH]c4ccccc43)CC2)CCCC1 (tested in a mixture with another compound): 66.9
8. O=C(NCCN1CCC2(CCc3ccccc32)CC1)[C@H]1C[C@@H]1c1ccccc1: 99.8
9. O=c1[nH]c2ccccc2n1C1CCN(CCNC(=S)Nc2ccccn2)CC1: 72.7
10. O=C(NCCN1CCC(n2c(=O)[nH]c3ccccc32)CC1)Nc1cccc(C(F)(F)F)c1: 131
11. O=C(NCCN1CCC(n2c(=O)[nH]c3ccccc32)CC1)c1cc([N+](=O)[O-])cc([N+](=O)[O-])c1: 102
12. O=C(NCCN1CCC(C(=O)NCc2ccc(Cl)cc2)CC1)c1ccc2ccccc2c1: 106
13. O=C(C1C[C@@H]1c1ccccc1)N1CCC2(CC1)C(=O)NCN2c1ccccc1 (some centres not stated): 84
14. O=c1[nH]c2ccccc2n1C1CCN(CCNC(=S)Nc2ccc(Cl)c(Cl)c2)CC1: 93.9
15. O=C(NCCN1CCC(n2c(=O)n(C(=O)c3ccc(Cl)cc3)c3ccccc32)CC1)c1ccc(Cl)cc1: 64.5
16. C[C@@H](CN1CCC(n2c(=O)[nH]c3ccccc32)CC1)NC(=O)c1ccc(F)c(F)c1: 75.6
17. CC(C(=O)NCCN1CCN(c2ccncc2)CC1)(c1ccccc1)c1ccccc1: 110
